molecular target: Alpha-2C adrenergic receptor (Homo sapiens); experiment: modulators of alpha2C/GIRK thallium flux, primary screen, cell-based, HEK293 alpha2C/GIRK1/2 (AID 624); conditions: thallium flux BTC fluorescence, at 10 µM, actives lie on both sides;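 note: slope of fluorescence ratio to pre-addition baseline per second over 15 to 24 s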
Active and inactive are the calls of the source.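 Rule for the calls: active = fluorescence slope after compound addition differing from the mean of all screened samples at 99.7% confidence, in either direction; inactive = the rest.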
endpoint_name: slope

compound: CCCCC(C(=O)O)C(C)CC(=O)Nc1cccc(C(=O)O)c1 (centres undefined)
value_observed: 0.00384 (inactive)

compound: O=C(OCC#CCSc1nnc(-c2ccccc2)o1)c1cccs1
value_observed: 0.00513 (inactive)

compound: Cc1c(/C(O)=C2/C(=O)C(=O)N(CCN3CCOCC3)C2c2cccnc2)cnn1-c1ccccc1 (centres undefined)
value_observed: 0.00432 (inactive)

compound: CCc1ccc(NC(=O)CSC2=C(C#N)C(c3ccco3)C3=C(CCCC3=O)N2)cc1 (centres undefined)
value_observed: 0.00507 (inactive)

compound: CC(=O)N1CCN(c2nc(CC(C)C)c3c(c2C#N)CCC3)CC1
value_observed: 0.00485 (inactive)

compound: Cc1nc(NS(=O)(=O)c2ccccc2)sc1NC(=O)OCCN(C)C
value_observed: 0.00439 (inactive)

compound: Cc1ccc(S(=O)(=O)NC(=O)NCc2ccc3c(c2)OCO3)cc1
value_observed: 0.00482 (inactive)

compound: CN1CCN2c3ccccc3Cc3ccccc3C2C1 (centres undefined)
value_observed: 0.0196 (active)

compound: COc1cc(-c2nn3c(-c4ccco4)nnc3s2)cc(OC)c1OC
value_observed: 0.0061 (inactive)

compound: CC(C)CC(=O)Nc1ccccc1N1CCCC1
value_observed: 0.0054 (inactive)

compound: COC(=O)CN(c1cc(OC)ccc1OC)S(=O)(=O)c1ccc(OC)c(OC)c1
value_observed: 0.00438 (inactive)

compound: Cc1cc(=O)oc2c(CN3CCN(C)CC3)c(O)c(Cl)cc12
value_observed: 0.00763 (inactive)

compound: NNC(=O)c1ccncc1
value_observed: 0.00499 (inactive)

compound: Cc1cccc(C)c1OCC(O)CNS(=O)(=O)c1ccccc1C(=O)N1CCOCC1 (centres undefined)
value_observed: 0.00603 (inactive)

compound: COc1ccc(/C=C(/C#N)c2cccnc2)cc1OC
value_observed: 0.00455 (inactive)

compound: NCc1ccc(S(N)(=O)=O)cc1
value_observed: 0.00484 (inactive)

compound: Cn1cc(Br)cc2nc(C(F)(F)F)nc1-2
value_observed: 0.00656 (inactive)

compound: CCC(c1c(C)n(C)n(-c2ccccc2)c1=O)c1c(C)n(C)n(-c2ccccc2)c1=O
value_observed: 0.00494 (inactive)

compound: Cc1ccc2nc(C(F)(F)F)c(C#N)c(N)c2c1
value_observed: 0.00524 (inactive)

compound: C=C1C2(C(=O)Nc3nccs3)CCC(C2)C1(C)C (centres undefined)
value_observed: 0.00676 (inactive)

compound: CCN(CC)S(=O)(=O)c1cccc2c(N(C)C)cccc12
value_observed: 0.00311 (inactive)

compound: CN1CCCN=C1COC(=O)C(O)(c1ccccc1)C1CCCCC1 (centres undefined)
value_observed: 0.00478 (inactive)

compound: CSC1=C(C#N)C(c2ccc(C)s2)CC(=O)N1 (centres undefined)
value_observed: 0.00472 (inactive)

compound: CCOP(=O)(c1ccccc1)C1(C#N)CCCC1 (centres undefined)
value_observed: 0.00467 (inactive)
